tested on: HPPD polypeptides; experiment: coupled HPPD activity assay: turnover and residual turnover in crude extracts; format: biochemical, Pseudomonas fluorescens; conditions: absence of Cmpd. 1; high substrate concentration; kinetic changes in absorbance (OD) at 320 nm, 30 min

>  <Molecule>
59 (protein, mutant HPPD polypeptide) MADLYENPMGLMGFEFIEFASPTPGTLEPIFEIMGFTKVATHRSKNVHLYRQGEINLILNNEPNSIASYFAAEHGPSVCGMAFRVKDSQKAYNRALELGAQPIHIDTGPMELNLPAIKGIGGAPLYLIDRFGEGSSIYDIDFVYLEGVERNPVGAGLKVIDHLTHNVYRGRMVYWANFYEKLFNFREARYFDIKGEYTGLTSKAMSAPDGMIRIPLNEESSKGAGQIEEFLMQFNGEGIQHVAFLTDDLVKTWDALKKIGMRFMTAPADSYYEMLEGRLPDHGEPVDQLQARGILLDGSSVEGDKRLLLQIFSETLMGPVFFEFIQRKGDDGFGPDSFKVLFEQKERDQVRRGVLTAD

>  <Turnover>
0.131

$$$$
>  <Molecule>
57 (protein, mutant HPPD polypeptide) MADLYENPMGLMGFEFIEFASPTPGTLEPIFEIMGFTKVATHRSKNVHLYRQGEINLILNNEPNSIASYFAAEHGPSVCGMAFRVKDSQKAYNRALELGAQPIHIDTGPMELNLPAIKGIGGAPLYLIDRFGEGSSIYDIDFVYLEGVERNPVGAGLKVIDHLTHNVYRGRMVYWANFYEKLFNFREARYFDIKGEYTGLTSKAMSAPDGMIRIPLNEESSKGAGQIEEFLMQFNGEGIQHVAFLTDDLVKTWDALKKIGMRFMTAPADNYYEMLEGRLPDHGEPVDQLQARGILLDGSSVEGDKRLLLQIFSETLMGPVFFEFIQRKGDDGFGPHSFKVLFEQKERDQVRRGVLTAD

>  <Turnover>
0.167

$$$$
>  <Molecule>
42 (protein, mutant HPPD polypeptide) MADLYENPMGLMGFEFIEFASPTPGTLEPIFEIMGFTKVATHRSKNVHLYRQGEINLILNNEPNSIASYFAAEHGPSVCGMAFRVKDSQKAYNRALELGAQPIHIDTGPMELNLPAIKGIGGAPLYLIDRFGEGSSIYDIDFVYLEGVERNPVGAGLKVIDHLTHNVYRGRMVYWANFYEKLFNFREARYFDIKGEYTGLTSKAMSAPDGMIRIPLNEESSKGAGQIEEFLMQFNGEGIQHVAFLTDDLVKTWDALKKIGMRFMTAPSDEYYEMLEGRLPDHGEPVDQLQARGILLDGSSVEGDKRLLLQIFSETLMGPVFFEFIQRKGDDGFGPHSFKVLFESVERDQVRRGVLTAD

>  <Turnover>
0.278

$$$$
>  <Molecule>
10 (protein, mutant HPPD polypeptide) MADLYENPMGLMGFEFIEFASPTPGTLEPIFEIMGFTKVATHRSKNVHLYRQGEINLILNNEPNSIASYFAAEHGPSVCGMAFRVKDSQKAYNRALELGAQPIHIDTGPMELNLPAIKGIGGAPLYLIDRFGEGSSIYDIDFVYLEGVERNPVGAGLKVIDHLTHNVYRGRMVYWANFYEKLFNFREARYFDIKGEYTGLTSKAMSAPDGMIRIPLNEESSKGAGQIEEFLMQFNGEGIQHVAFLTDDLVKTWDALKKIGMRFMTAPGDTYYEMLEGRLPDHGEPVDQLQARGILLDGSSVEGDKRLLLQIFSETLMGPVFFEFIQRKGDDGFGPDSFKVLFESVERDQVRRGVLTAD

>  <Turnover>
0.125

$$$$
